The reported numbers originate from patent US9676732B2.

# assayed_system: human mGlu4 receptor (Homo sapiens (Human))
# test_protocol: Ca2+ mobilization in vitro assay on recombinant human mGlu4 expressed in HEK293 cells (mGlu4 PAM)
# Type: cell-based
# assay_setup: HEK293 cells stably expressing human mGlu4; L-AP4 added at EC20; read-out: EC50 (nM) mGlu4PAM
measurement_kind: EC50 (nM)

Query: Entry under review: CC(C)n1c(=O)n(-c2c(F)cc(C#Cc3ccccc3)cc2F)c(=O)c2c[nH]nc21 [Example 64] . Reported EC50?
Response: 121

Query: Reported EC50 for Cc1csc2c(=O)n(-c3ccc(C#Cc4ccccc4)cc3Cl)c(=O)n(C)c12 [Example 20] : what is it?
Response: 50

Query: Which measured EC50 value corresponds to Cn1c(=O)n(-c2ccc(C#Cc3ccccc3)cc2Cl)c(=O)c2scnc21 [Example 52] ?
Response: 200

P = CCn1c(=O)n(-c2ccc(C#Cc3ccccc3)cc2Cl)c(=O)c2ccccc21 [Example 14]
Q = Cn1c(=O)n(-c2c(F)cc(C#Cc3ccccc3)cc2F)c(=O)c2scnc21 [Example 32]
R = Cn1c(=O)n(-c2ccc(C#Cc3ccccc3)cc2Cl)c(=O)c2nccnc21 [Example 15]
Query: Endpoint returns the given compounds ordered by ascending EC50. Hello, could you send the labels back in the order asked? Thank you.
Response: Q, R, P

###

# assayed_system: human mGlu4 receptor (Homo sapiens (Human), UniProt Q14833)
# Sequence (Q14833 33-912): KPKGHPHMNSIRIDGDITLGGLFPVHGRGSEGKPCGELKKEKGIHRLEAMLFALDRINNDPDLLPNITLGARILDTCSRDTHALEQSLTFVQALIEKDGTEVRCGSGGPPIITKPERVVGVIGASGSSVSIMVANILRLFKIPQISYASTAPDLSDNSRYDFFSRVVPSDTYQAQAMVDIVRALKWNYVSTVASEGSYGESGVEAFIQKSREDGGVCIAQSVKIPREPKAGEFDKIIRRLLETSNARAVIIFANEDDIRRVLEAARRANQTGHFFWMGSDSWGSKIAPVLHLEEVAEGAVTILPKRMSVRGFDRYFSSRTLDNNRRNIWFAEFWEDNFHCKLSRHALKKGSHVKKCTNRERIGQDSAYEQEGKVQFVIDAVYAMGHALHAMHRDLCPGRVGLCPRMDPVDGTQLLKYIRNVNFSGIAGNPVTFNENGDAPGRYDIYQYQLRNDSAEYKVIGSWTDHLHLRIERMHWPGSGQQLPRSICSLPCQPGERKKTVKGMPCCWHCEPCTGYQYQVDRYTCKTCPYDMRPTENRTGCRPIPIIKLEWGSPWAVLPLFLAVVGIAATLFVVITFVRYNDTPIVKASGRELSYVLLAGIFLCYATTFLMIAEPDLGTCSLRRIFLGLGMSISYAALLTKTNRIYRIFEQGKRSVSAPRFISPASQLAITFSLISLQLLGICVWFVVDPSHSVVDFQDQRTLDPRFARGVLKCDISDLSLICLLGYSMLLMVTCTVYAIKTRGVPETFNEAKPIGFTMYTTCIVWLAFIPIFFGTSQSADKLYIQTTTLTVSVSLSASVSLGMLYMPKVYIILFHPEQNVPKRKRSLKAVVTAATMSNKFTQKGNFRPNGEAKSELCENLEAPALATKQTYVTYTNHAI
# test_protocol: Ca2+ mobilization in vitro assay on recombinant human mGlu4 expressed in HEK293 cells (mGlu4 PAM)
# Assay type: cell-based
# assay_setup: HEK293 cells stably expressing human mGlu4; L-AP4 added at EC20; read-out: EC50 (nM) mGlu4PAM
measurement_kind: EC50 (nM)

Illustrative cases are given below, each with its answer.
Query: // returns reported EC50 for input Cn1c(=O)n(-c2c(F)cc(C#Cc3ccccc3)cc2F)c(=O)c2nsnc21
Response: 17

Query: I have this compound here, Cn1c(=O)n(-c2ccc(C#Cc3ccccc3)cc2Cl)c(=O)c2ccc(F)c(F)c21 , and I need its recorded EC50.
Response: 134

Query: Entry CC(C)n1c(=O)n(-c2c(F)cc(C#Cc3cccnc3)cc2Cl)c(=O)c2ccccc21 has what EC50?
Response: 83

Query: # query: EC50 of entry O=c1[nH]c2ncccc2c(=O)n1-c1ccc(C#Cc2ccccc2)cc1Cl
Response: 179

P = Cn1cnc2c1c(=O)n(-c1ccc(C#Cc3ccccc3)cc1Cl)c(=O)n2C
Q = Cc1cccc2c(=O)n(-c3c(F)cc(C#Cc4ccccc4)cc3F)c(=O)n(C)c12
Query: Decide: P or Q , by lowest recorded EC50. Reply with the label of the item you choose.
Response: Q
(Q: 26 nM, P: 175 nM)

###

# assayed_system: human mGlu4 receptor (Homo sapiens (Human), UniProt Q14833)
# test_protocol: Ca2+ mobilization in vitro assay on recombinant human mGlu4 expressed in HEK293 cells (mGlu4 PAM)
# Assay type: cell-based
# assay_setup: maximal response in % of the maximal stimulatory effect obtained with saturating concentrations of L-AP4
measurement_kind: Eff. (%)

Query: Using the record for CC(C)n1c(=O)n(-c2c(F)cc(C#Cc3cccnc3)cc2Cl)c(=O)c2nn(C)cc21 [Example 58] , report its Eff. (%).
Response: 120

Query: Which Eff. (%) is reported for this compound? Cn1c(=O)n(-c2c(F)cc(C#Cc3ccccc3)cc2F)c(=O)c2nccc(Cl)c21 [Example 61]
Response: 129

Query: I have this compound here, Cn1c(=O)n(-c2ccc(C#Cc3ccccc3)cc2Cl)c(=O)c2cncnc21 [Example 17] , and I need its recorded Eff. (%).
Response: 101

P = CC(C)c1cccc2c(=O)n(-c3ccc(C#Cc4ccccc4)cc3Cl)c(=O)n(C)c12 [Example 54]
Q = Cn1ncc2c(=O)n(-c3c(F)cc(C#Cc4ccccc4)cc3F)c(=O)n(C)c21 [Example 63]
Query: Between P and Q , whose recorded Eff. (%) is greater? Choose, then provide that item's label.
Response: Q
(Q: 146%, P: 97%)

###

# assayed_system: human mGlu4 receptor (Homo sapiens (Human))
# test_protocol: Ca2+ mobilization in vitro assay on recombinant human mGlu4 expressed in HEK293 cells (mGlu4 PAM)
# Format: cell-based
# assay_setup: HEK293 cells stably expressing human mGlu4; L-AP4 added at EC20; read-out: EC50 (nM) mGlu4PAM
measurement_kind: EC50 (nM)

Consider the following illustrative entries.
Query: What does the data say about its EC50? Entry: CC(C)n1c(=O)n(-c2c(F)cc(C#Cc3ccccc3)cc2F)c(=O)c2cccnc21 [Example 37]
Response: 88

Query: // lookup EC50 for CC(C)n1c(=O)n(-c2c(F)cc(C#Cc3ccccc3)cc2C(F)(F)F)c(=O)c2ccccc21 [Example 72]
Response: 63

Query: Dear colleague, I am looking for the recorded EC50 of the following compound: Cc1cccc2c(=O)n(-c3c(F)cc(C#Cc4cccnc4)cc3F)c(=O)n(C)c12 [Example 73]
Response: 154

Query: # query: EC50 of entry CC(C)n1c(=O)n(-c2ncc(C#Cc3ccccc3)cc2Cl)c(=O)c2ccccc21 [Example 45]
Response: 137

Query: // EC50 lookup, key: CC(C)n1c(=O)n(-c2c(F)cc(C#Cc3ccccc3)cc2F)c(=O)c2nn(C)cc21 [Example 35]
Response: 30

Query: Please look up its EC50: O=c1c2cccc3c2n(c(=O)n1-c1ncc(C#Cc2ccccc2)cc1Cl)CC3 [Example 47]
Response: 187

a = Cn1cnc2c1c(=O)n(-c1c(F)cc(C#Cc3ccccc3)cc1F)c(=O)n2C [Example 69]
b = CC(C)n1c(=O)n(-c2ncc(C#Cc3cccnc3)cc2Cl)c(=O)c2nn(C)cc21 [Example 59]
c = O=c1c2cccc3c2n(c(=O)n1-c1c(F)cc(C#Cc2cccnc2)cc1F)CC3 [Example 30]
d = Cn1ncc2c(=O)n(-c3c(F)cc(C#Cc4ccccc4)cc3F)c(=O)n(C)c21 [Example 63]
e = CC(C)n1c(=O)n(-c2ccc(C#Cc3ccccc3)cn2)c(=O)c2ccccc21 [Example 55]
Query: Ascending by EC50, please: list the compounds accordingly. Order the labels as requested and give them as your answer.
Response: d, a, c, b, e
(d: 26 nM, a: 50 nM, c: 91 nM, b: 169 nM, e: 766 nM)

###

# assayed_system: human mGlu4 receptor (Homo sapiens (Human), UniProt Q14833)
# test_protocol: Ca2+ mobilization in vitro assay on recombinant human mGlu4 expressed in HEK293 cells (mGlu4 PAM)
# Format: cell-based
# assay_setup: maximal response in % of the maximal stimulatory effect obtained with saturating concentrations of L-AP4
measurement_kind: Eff. (%)

Observe how each entry below is paired with its result.
Query: Sample Cn1c(=O)n(-c2ncc(C#Cc3ccccc3)cc2C(F)(F)F)c(=O)c2ccccc21 [Example 48] — what was its Eff. (%)?
Response: 95

Query: For the compound shown here, Cn1c(=O)n(-c2ccc(C#Cc3ccccc3)cc2Cl)c(=O)c2ccccc21 [Example 1] , give the reported Eff. (%).
Response: 102

Query: Consider the compound CC(C)n1c(=O)n(-c2c(F)cc(C#Cc3ccccc3)cc2F)c(=O)c2c[nH]nc21 [Example 64] and give its measured Eff. (%).
Response: 120

Query: Request the reported Eff. (%) associated with Cn1c(=O)n(-c2ncc(C#Cc3ccccc3)cc2Cl)c(=O)c2ccccc21 [Example 44]
Response: 180

Query: Given the entry Cn1c(=O)n(-c2c(F)cc(C#Cc3ccccc3)cc2F)c(=O)c2cccnc21 [Example 25] , report its measured Eff. (%).
Response: 109

A = Cn1cnc2c1c(=O)n(-c1ccc(C#Cc3ccccc3)cc1Cl)c(=O)n2C [Example 11]
B = CC(C)n1c(=O)n(-c2c(F)cc(C#Cc3cccnc3)cc2Cl)c(=O)c2ccccc21 [Example 42]
Query: Which has the higher Eff. (%), A or B ? Could you answer with the label of the item you picked?
Response: A
(A: 122%, B: 80%)

###

# assayed_system: human mGlu4 receptor (Homo sapiens (Human), UniProt Q14833)
# test_protocol: Ca2+ mobilization in vitro assay on recombinant human mGlu4 expressed in HEK293 cells (mGlu4 PAM)
# Assay type: cell-based
# assay_setup: maximal response in % of the maximal stimulatory effect obtained with saturating concentrations of L-AP4
measurement_kind: Eff. (%)

Field: example entries. Status: answers known.
Query: For the molecule Cn1c(=O)n(-c2ccc(C#Cc3ccccc3)cc2Cl)c(=O)c2ncsc21 , what Eff. (%) is on record?
Response: 188

Query: Requested field: Eff. (%). Item: Cn1c(=O)n(-c2ccc(C#Cc3ccccc3)cc2Cl)c(=O)c2cc(F)ccc21
Response: 86

Query: What value of measured Eff. (%) is listed for Cn1cc2c(n1)c(=O)n(-c1c(F)cc(C#Cc3ccccc3)cc1F)c(=O)n2C ?
Response: 86

Query: Returns the measured Eff. (%) for the input molecule. Input: CC(C)n1c(=O)n(-c2c(F)cc(C#Cc3ccccc3)cc2C(F)(F)F)c(=O)c2ccccc21
Response: 134

Query: Given the molecule Cn1c(=O)n(-c2c(F)cc(C#Cc3ccccc3)cc2F)c(=O)c2scnc21 , what is its reported Eff. (%)?
Response: 104

P = O=c1c2ccccc2n(C2COC2)c(=O)n1-c1c(F)cc(C#Cc2ccccc2)cc1F
Q = CC(C)n1c(=O)n(-c2ccc(C#Cc3ccccc3)cc2Cl)c(=O)c2ccccc21
R = Cc1csc2c(=O)n(-c3ccc(C#Cc4ccccc4)cc3Cl)c(=O)n(C)c12
Query: Could you please sort these 3 entries by Eff. (%) from high to low? To answer, write out the labels according to the requested order.
Response: P, Q, R
(P: 184%, Q: 115%, R: 74%)
